Examples of binders with documented EC50 (read off the curve) follow.
# Measurement Target: human properdin (human, UniProt P27918 28-469)
# Sequence (P27918 28-469 limits assumed): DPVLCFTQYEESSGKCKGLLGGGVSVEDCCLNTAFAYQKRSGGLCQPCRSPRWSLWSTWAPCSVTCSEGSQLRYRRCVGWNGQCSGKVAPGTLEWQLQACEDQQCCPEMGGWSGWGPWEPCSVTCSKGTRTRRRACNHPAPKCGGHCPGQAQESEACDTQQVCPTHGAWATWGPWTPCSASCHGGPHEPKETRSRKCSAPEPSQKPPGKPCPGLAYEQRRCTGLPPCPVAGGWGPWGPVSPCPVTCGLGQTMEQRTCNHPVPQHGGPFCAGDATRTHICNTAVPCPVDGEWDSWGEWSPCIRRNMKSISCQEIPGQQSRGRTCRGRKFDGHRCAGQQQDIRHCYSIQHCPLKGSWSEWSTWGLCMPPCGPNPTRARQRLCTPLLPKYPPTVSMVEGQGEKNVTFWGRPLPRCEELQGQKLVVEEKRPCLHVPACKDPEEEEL
# Assay Summary: ELISA, human properdin coated on the plate, OD 450 nm

Binder	Measured Result
NMT19 (antibody, V domains shown) VH: EVQLVQSGAEVKKPGASVKVSCKASGHIFTNYPIHWVRQAPGQGLEWMGFIDPGGGHDEPDERFRDRVTMTADTSTSTAYMELSSLRSEDTAVYYCARRGGGYYLDYWGQGTTVTVSS VL: DIQMTQSPSSLSASVGDRVTITCRASQDISFFLNWYQQKPGKAPKLLIYYTSRYHSGVPSRFSGSGSGTDFTLTISSLQPEDFATYYCQHGQTLPWTFGQGTKLEIK	~0.5 nM
NMT16 (antibody, V domains shown) VH: EVQLVQSGAEVKKPGASVKVSCKASGYIFTNYPIHWVRQAPGQGLEWMGFIDPGGGYDEPDERFRDRVTMTADTSTSTAYMELSSLRSEDTAVYYCARRGGGYYLDYWGQGTTVTVSS VL: DIQMTQSPSSLSASVGDRVTITCRASQDISFFLNWYQQKPGKAPKLLIYYTSRYHSGVPSRFSGSGSGTDFTLTISSLQPEDFATYYCQHGNTLPWTFGQGTKLEIK	0.3 to 0.4 nM

Next, consider the following binder.
State, in one line, measured EC50 (read off the curve) of NMT20 (antibody, V domains shown) VH: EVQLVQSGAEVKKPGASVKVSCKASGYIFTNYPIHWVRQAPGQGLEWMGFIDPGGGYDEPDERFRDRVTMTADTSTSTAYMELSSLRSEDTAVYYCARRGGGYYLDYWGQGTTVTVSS VL: DIQMTQSPSSLSASVGDRVTITCRASQDISFFLNWYQQKPGKAPKLLIYYTSRYHSGVPSRFSGSGSGTDFTLTISSLQPEDFATYYCQHGSTLPYTFGQGTKLEIK
~0.3 nM
